System: corn
Method: Test C preemergence
Format: in vivo, Zea mays
Test Parameters: Preemergence, 500 g ai/ha; visual rating after 10 days, 0 to 100 scale (0 no effect, 100 complete control)
As shown below, each of these compounds has a reported Plant response rating, Corn value.

{"columns": ["Compound", "Plant response rating, Corn"],
 "data": [
  ["Cc1ccc(-n2cnc(C[S+](C)[O-])n2)cc1C(=O)N1C[C@H](C)Oc2c(Cl)cccc21 (some centres unmarked) [Compound 224]", 20],
  ["CCn1cnc(-c2cccc(C(=O)N3C[C@H](C)Oc4c(C)cccc43)c2)n1 [Compound 165]", 0],
  ["Cc1ccc(-n2cnc(C(C)C)n2)cc1C(=O)N1C[C@H](C)Oc2c(F)cccc21 [Compound 242]", 70],
  ["COc1ccc(-n2cnc(C(C)(C)O)n2)cc1C(=O)N1C[C@H](C)Oc2c(Cl)cccc21 [Compound 254]", 50],
  ["C[C@H]1CN(C(=O)c2cc(-n3cncn3)cc3c2OCCO3)c2cccc(Cl)c2O1 [Compound 153]", 30],
  ["COc1cc(C(=O)N2C[C@H](C)Oc3c(Cl)cccc32)cc(-n2cnc(C)n2)c1 [Compound 215]", 60],
  ["CCc1c(F)cc(-n2cnc(C(C)C)n2)cc1C(=O)N1C[C@H](C)Oc2c(Cl)cccc21 [Compound 152]", 50],
  ["Cc1ccc(-n2cnc(C(C)(C)C)n2)cc1C(=O)N1CC(C(F)(F)F)Oc2c(Cl)cccc21 (single isomer, unassigned) [Compound 192]", 20],
  ["C[C@H]1CN(C(=O)c2cccc(-n3cnc(C(C)(C)O)n3)c2)c2cccc(Cl)c2O1 [Compound 169]", 40],
  ["COc1cc(C(=O)N2C[C@H](C)Oc3c(Cl)cccc32)cc(-n2cnc(C3CC3)n2)c1 [Compound 216]", 30],
  ["CC(C)c1ncn(-c2cc3c(c(C(=O)N4C[C@H](C)Oc5c(Cl)cccc54)c2)OCO3)n1 [Compound 258]", 20]
]}

###

Test system: green foxtail
Method: Test C postemergence
Type: in vivo, Setaria viridis
Test Parameters: Postemergence, 1000 g ai/ha; 0 to 100 scale, 0 no effect, 100 complete control
As shown below, each of these compounds has a reported Plant response rating, Foxtail, Green value.

{"columns": ["Smiles Representation", "Plant response rating, Foxtail, Green"],
 "data": [
  ["Cc1ccc(-c2cccc(C(=O)N3C[C@H](C)Oc4c(C)cccc43)c2)cn1", 30],
  ["Cc1ccc(-c2cccc(C(=O)N3C[C@H](C)Oc4c(Cl)cccc43)c2)o1", 0],
  ["C[C@H]1CN(C(=O)c2cccc(N3CCOCC3)c2)c2cccc(Cl)c2O1", 0],
  ["Cc1cc(-c2cccc(C(=O)N3C[C@H](C)Oc4c(C)cccc43)c2)ccn1", 10]
]}

###

System: pigweed, palmer
Method: Test C postemergence
Format: in vivo, Amaranthus palmeri
Test Parameters: 500 g ai/ha, postemergence, 10 days, 0 to 100 scale (0 no effect, 100 complete control)
With a cut-off of 80, any Plant response rating, Pigweed, Palmer strictly below it is called t; any Plant response rating, Pigweed, Palmer meeting it or above is called f.

{"columns": ["Molecule", "System Tested", "Classification"],
 "data": [
  ["COC(=O)N(C)c1ncn(-c2cccc(C(=O)N3C[C@H](C)Oc4c(C)cccc43)c2)n1", "pigweed, palmer", "t"],
  ["CC(C)c1ncn(-c2cc(C(=O)N3CC(C(F)(F)F)Oc4c(Cl)cccc43)ccn2)n1 (single isomer, unassigned) [Compound 331]", "pigweed, palmer", "t"],
  ["COc1ccc(-n2cnc(C3CCC3)n2)cc1C(=O)N1C[C@H](C)Oc2c(Cl)cccc21", "pigweed, palmer", "f"],
  ["Cc1cccc2c1O[C@@H](C)CN2C(=O)c1cccc(-n2cnc(N)n2)c1", "pigweed, palmer", "t"],
  ["C[C@H]1CN(C(=O)c2cc(-n3cncn3)cc(C(F)(F)F)c2)c2cccc(Cl)c2O1", "pigweed, palmer", "t"],
  ["C[C@H]1CN(C(=O)c2cccc(-n3cnc(OS(C)(=O)=O)n3)c2)c2cccc(Cl)c2O1", "pigweed, palmer", "t"],
  ["COC(C)(C)c1ncn(-c2ccc(C)c(C(=O)N3C[C@H](C)Oc4c(Cl)cccc43)c2)n1", "pigweed, palmer", "f"],
  ["CC(=O)c1ncn(-c2ccc(C)c(C(=O)N3C[C@H](C)Oc4c(Cl)cccc43)c2)n1", "pigweed, palmer", "f"],
  ["CCOCC1CN(C(=O)c2cc(-n3cnc(CC)n3)ccc2OC)c2cccc(Cl)c2O1 (stereo not drawn)", "pigweed, palmer", "f"],
  ["CCOCc1ncn(-c2ccc(C)c(C(=O)N3C[C@H](C)Oc4c(Cl)cccc43)c2)n1", "pigweed, palmer", "t"],
  ["CC(=O)N(C)c1ncn(-c2cccc(C(=O)N3C[C@H](C)Oc4c(C)cccc43)c2)n1", "pigweed, palmer", "t"],
  ["Cc1ncc(-c2cccc(C(=O)N3C[C@H](C)Oc4c(Cl)cccc43)c2)o1", "pigweed, palmer", "t"],
  ["CC(C)c1ncn(-c2cccc(C(=O)N3CC(C(F)(F)F)Oc4c(Cl)cccc43)c2)n1 (stereo not drawn)", "pigweed, palmer", "f"],
  ["Cc1ccc(-n2cnc(C#N)n2)cc1C(=O)N1C[C@H](C)Oc2c(Cl)cccc21", "pigweed, palmer", "f"]
]}

###

System: oat, wild
Method: Test C preemergence
Assay type: in vivo, Avena fatua
Test Parameters: Preemergence, 500 g ai/ha; visual rating after 10 days, 0 to 100 scale (0 no effect, 100 complete control)
As shown below, each of these molecules has a reported Plant response rating, Oat, Wild value.

{"columns": ["Smiles Representation", "Plant response rating, Oat, Wild"],
 "data": [
  ["COc1ccc(-n2cncn2)cc1C(=O)N1C[C@H](C)Oc2ccccc21", 90],
  ["CCc1ccc(-n2cnc(C(C)C)n2)cc1C(=O)N1C[C@H](C)Oc2c(C)cccc21", 90],
  ["COC[C@H]1CN(C(=O)c2cccc(-n3cnc(C(C)(C)O)n3)c2)c2cccc(Cl)c2O1", 90],
  ["Cc1c(F)cc(-n2cnc(C(C)C)n2)cc1C(=O)N1C[C@H](C)Oc2c(Cl)cccc21", 90],
  ["CC(C)c1ncn(-c2cc3c(c(C(=O)N4C[C@H](C)Oc5c(Cl)cccc54)c2)OCCO3)n1", 90],
  ["COC[C@H]1CN(C(=O)c2cc(-n3cncn3)ccc2OC)c2cccc(Cl)c2O1", 70],
  ["CCn1cnc(-c2cccc(C(=O)N3C[C@H](C)Oc4c(Cl)cccc43)c2)n1", 0],
  ["Cc1cccc2c1O[C@H](C)CN2C(=O)c1cccc(-c2ncn(C(C)C)n2)c1", 0],
  ["CC(C)=C(C)c1ncn(-c2cccc(C(=O)N3C[C@H](C)Oc4c(C)cccc43)c2)n1", 80],
  ["COc1ccc(-n2cncn2)cc1C(=O)N1C[C@H](C)Oc2c(Cl)cccc21", 90],
  ["CC(C)c1ncn(-c2cc3c(c(C(=O)N4C[C@H](C)Oc5c(Cl)cccc54)c2)CCC3)n1", 80],
  ["CC(C)n1cnc(-c2cccc(C(=O)N3C[C@H](C)Oc4c(Cl)cccc43)c2)n1", 0],
  ["Cc1cccc2c1O[C@@H](C)CN2C(=O)c1cccc(-n2cnc(C#N)c2)c1", 0],
  ["C[C@H]1CN(C(=O)c2cccc(-c3ncccn3)c2)c2cccc(Cl)c2O1", 0],
  ["Cc1ccc(-n2cnc(C3(C(F)(F)F)CCC3)n2)cc1C(=O)N1C[C@H](C)Oc2c(Cl)cccc21", 20]
]}

###

System: wheat
Method: Test C preemergence
Format: in vivo, Triticum aestivum
Test Parameters: 500 g ai/ha, preemergence; 0 to 100 scale (0 no effect, 100 complete control)

{"columns": ["Molecule", "Wheat plant response rating"],
 "data": [
  ["Cc1ncn(-c2cccc(C(=O)N3C[C@H](C)Oc4c(Cl)cccc43)c2)n1", 80],
  ["CC(C)c1ncn(-c2cccc(C(=O)N3CC(C(F)(F)F)Oc4c(Cl)cccc43)c2)n1 (single isomer, unassigned) [Compound 288]", 20],
  ["C[C@H]1CN(C(=O)c2cccc(-n3cnc(C4CC4)n3)c2)c2cccc(Cl)c2O1", 30],
  ["CCc1ccc(-n2cnc(C(C)(C)O)n2)cc1C(=O)N1C[C@H](C)Oc2c(C)cccc21", 90],
  ["Cc1ccc(-n2cnc(C(C)(C)C#N)n2)cc1C(=O)N1C[C@H](C)Oc2c(Cl)cccc21", 30],
  ["CCOC(=O)c1ncn(-c2ccc(C)c(C(=O)N3C[C@H](C)Oc4c(Cl)cccc43)c2)n1", 30],
  ["Cc1cccc2c1OC(C(F)(F)F)CN2C(=O)c1ccnc(-n2cnc(C(C)(C)C)n2)c1 (stereo not shown)", 30]
]}

###

Test system: ragweed
Method: Test A preemergence
Assay type: in vivo, Ambrosia artemisiifolia
Test Parameters: 125 g ai/ha, visual injury after 10 days, 0 to 100 scale, 0 is no effect, 100 is complete control

{"columns": ["Compound", "Plant response rating, Ragweed"],
 "data": [
  ["CCC1CN(C(=O)c2cncc(-n3cncn3)c2)c2cccc(Cl)c2O1 (racemic) [Compound 6]", 0],
  ["Cc1cccc2c1O[C@@H](C)CN2C(=O)c1cccc(-n2cnc(Cl)n2)c1 [Compound 69]", 0],
  ["Cc1c(C(=O)N2CC(C)Oc3c(Cl)cccc32)cccc1-n1cncn1 (centres unmarked) [Compound 40]", 0],
  ["CC(C)Oc1ccc(-n2cnc(C(C)C)n2)cc1C(=O)N1C[C@H](C)Oc2c(Cl)cccc21 [Compound 108]", 30],
  ["O=C(c1cccc(-n2cncn2)c1)N1CC(C(F)(F)F)Oc2c(Cl)cccc21 (centres unmarked) [Compound 59]", 0],
  ["COc1ccc(-n2cnc(C(C)(C)C)n2)cc1C(=O)N1C[C@H](C)Oc2c(Cl)cccc21 [Compound 83]", 50],
  ["C[C@H]1CN(C(=O)c2cc(C3CC3)cc(-n3cncn3)c2)c2cccc(Cl)c2O1 [Compound 136]", 0],
  ["COCCc1ncn(-c2cccc(C(=O)N3C[C@H](C)Oc4c(C)cccc43)c2)n1 [Compound 113]", 0]
]}
